# assayed-system: Tumour suppressor p53/oncoprotein Mdm2 (Homo sapiens)
# Sequence (P04637 whole entry): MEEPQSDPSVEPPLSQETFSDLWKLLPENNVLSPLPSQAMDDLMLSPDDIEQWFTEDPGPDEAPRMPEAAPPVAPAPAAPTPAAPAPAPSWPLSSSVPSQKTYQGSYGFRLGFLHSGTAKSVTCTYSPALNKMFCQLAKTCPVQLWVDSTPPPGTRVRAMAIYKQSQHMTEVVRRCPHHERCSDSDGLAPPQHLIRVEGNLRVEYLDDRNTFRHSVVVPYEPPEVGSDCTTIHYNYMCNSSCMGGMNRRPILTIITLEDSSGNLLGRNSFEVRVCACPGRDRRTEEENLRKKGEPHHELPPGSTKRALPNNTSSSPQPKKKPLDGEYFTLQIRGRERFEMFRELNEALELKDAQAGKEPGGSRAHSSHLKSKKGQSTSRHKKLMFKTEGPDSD
# Sequence (Q00987 whole entry): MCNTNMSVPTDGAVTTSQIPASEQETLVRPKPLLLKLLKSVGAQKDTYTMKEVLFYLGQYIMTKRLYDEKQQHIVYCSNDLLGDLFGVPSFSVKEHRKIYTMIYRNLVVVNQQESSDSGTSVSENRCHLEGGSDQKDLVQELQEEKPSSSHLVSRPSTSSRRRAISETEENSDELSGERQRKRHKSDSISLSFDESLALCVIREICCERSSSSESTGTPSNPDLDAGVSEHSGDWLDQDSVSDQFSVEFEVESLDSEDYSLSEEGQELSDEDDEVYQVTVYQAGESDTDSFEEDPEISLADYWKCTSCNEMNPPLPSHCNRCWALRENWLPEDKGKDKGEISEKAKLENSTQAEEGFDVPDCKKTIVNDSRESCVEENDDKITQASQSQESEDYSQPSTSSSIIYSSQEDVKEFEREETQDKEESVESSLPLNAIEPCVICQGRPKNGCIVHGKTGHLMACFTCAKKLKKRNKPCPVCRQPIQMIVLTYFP
# test: Inhibition of p53-MDM2 (unknown origin) interaction using 0.2% BSA buffer after 1 hr by HTRF assay
# Type: protein assay
Recorded IC50, one value per entry.
Number in nM, nothing else.

Some solved cases for reference:
CC(C)(C)C[C@@H]1N[C@@H](C(=O)Nc2ccc(C(N)=O)cc2F)[C@H](c2cccc(Cl)c2F)[C@]12C(=O)Nc1cc(Cl)ccc12 ... 7
CC(=O)N1CCCC([C@]2(Cc3cccc(Cl)c3)C(=O)Nc3cc(Cl)ccc32)C1 (some centres not stated) ... 3900
CC(C)(C)C[C@@H]1N[C@@H](C(=O)Nc2ccc(C(N)=O)cc2)[C@H](c2cccc(Cl)c2F)[C@]12C(=O)Nc1cc(Cl)ccc12 ... 5
CC(C)(C)C[C@@H]1N[C@@H](C(=O)Nc2ccc(OCCO)cc2)[C@H](c2cccc(Cl)c2F)[C@]12C(=O)Nc1cc(Cl)ccc12 ... 8
COc1cc(NC(=O)[C@H]2N[C@H](CC(C)(C)C)[C@]3(C(=O)Nc4cc(Cl)ccc43)[C@@H]2c2cccc(Cl)c2F)ccc1C(=O)O ... 3740

[in] Look up IC50: COc1cc(C(N)=O)ccc1NC(=O)[C@@H]1N[C@@H](CC(C)(C)C)[C@@]2(C(=O)Nc3c2ccc(Cl)c3F)[C@H]1c1cccc(Cl)c1F (racemic)
[out] 18

[in] Look up IC50: `COc1cc(C(N)=O)ccc1NC(=O)[C@@H]1N[C@@H](CC(C)(C)C)[C@@]2(C(=O)Nc3cc(Cl)cc(F)c32)[C@H]1c1cccc(Cl)c1F`
[out] 6

---

# System: SW480
# test: Antiproliferative activity against p53 mutant expressing human SW480 cells assessed as inhibition of cell proliferation by MTT assay
# Format: functional, cell-based
parameter: pIC50
Please treat pIC50 as minus the base-10 logarithm of the molar concentration.

Some solved cases for reference:
CC(C)(C)C[C@@H]1N[C@@H](C(=O)Nc2ccc(C(N)=O)cc2F)[C@H](c2cccc(Cl)c2F)[C@]12C(=O)Nc1cc(Cl)ccc12 ... 5.15
CC(C)(C)C[C@@H]1N[C@@H](C(=O)Nc2ccc(C(N)=O)cc2)[C@H](c2cccc(Cl)c2F)[C@]12C(=O)Nc1cc(Cl)c(F)cc12 ... 4.82
COc1cc(C(N)=O)ccc1NC(=O)[C@@H]1N[C@@H](CC(C)(C)C)[C@@]2(C(=O)Nc3cc(Cl)cc(F)c32)[C@H]1c1cccc(Cl)c1F ... 4.98
COc1cc(NC(=O)[C@@H]2N[C@@H](CC(C)(C)C)[C@@]3(C(=O)Nc4cc(Cl)ccc43)[C@H]2c2cccc(Cl)c2F)ccc1C(=O)O ... 4.84
COc1cc(C(N)=O)ccc1NC(=O)[C@@H]1N[C@@H](CC(C)(C)C)[C@@]2(C(=O)Nc3c2ccc(Cl)c3F)[C@H]1c1cccc(Cl)c1F (racemic) ... 5.12

Let us move to another entry and its pIC50.
[in] Look up pIC50: `CC(C)(C)C[C@@H]1N[C@@H](C(=O)Nc2ccc(OCCO)cc2)[C@H](c2cccc(Cl)c2F)[C@]12C(=O)Nc1cc(Cl)ccc12`
[out] 4.95

---

Recorded half-life, one value per entry.
# test: Apparent terminal half life in C57 mouse at 5 mg/kg, iv
# Type: ADME, organism-based
# Design: dose 5 mg/kg, route intravenous
# reported-conditions: in vivo, read-out: betat1/2(app) (converted)

COc1cc(OCCO)ccc1NC(=O)[C@@H]1N[C@@H](CC(C)(C)C)[C@@]2(C(=O)Nc3cc(Cl)ccc32)[C@H]1c1cccc(Cl)c1F ... 6.6 h
COc1cc(C(=O)O)ccc1NC(=O)[C@@H]1N[C@@H](CC(C)(C)C)[C@@]2(C(=O)Nc3cc(Cl)ccc32)[C@H]1c1cccc(Cl)c1F ... 11.1 h
CC(C)(C)C[C@@H]1N[C@@H](C(=O)Nc2ccc(C(N)=O)cc2F)[C@H](c2cccc(Cl)c2F)[C@]12C(=O)Nc1cc(Cl)ccc12 ... 15.3 h
CC(C)(C)C[C@@H]1N[C@@H](C(=O)Nc2ccc(C(N)=O)cc2)[C@H](c2cccc(Cl)c2F)[C@]12C(=O)Nc1cc(Cl)c(F)cc12 ... 8.8 h

Let us move to another entry and its half-life.
[in] Look up half-life: `CC(C)(C)C[C@@H]1N[C@@H](C(=O)Nc2ccc(C(N)=O)cc2)[C@H](c2cccc(Cl)c2F)[C@]12C(=O)Nc1cc(Cl)ccc12`
[out] 10.4 h

FYI, the data here is from ChEMBL document CHEMBL3352737.
